test system: HCC-2998 colon; test: NCI tumour cell line growth inhibition, 48 h
Listed molecules paired with reported GI50

{"molecule": "Cc1ccc2nc(-c3ccc(N(C)C)c(Br)c3)cn2c1", "GI50": "> 100 µM"}
{"molecule": "NC(=O)c1cc2c3ccccc3ccn2c1-c1ccccc1", "GI50": "0.542 µM"}
{"molecule": "Cc1cc2c(cc1Cl)SC1=NN(C)C(N(C)C)N1S2(=O)=O (stereo not drawn)", "GI50": "> 100 µM"}
{"molecule": "O=C1c2cc(Cl)ccc2-c2c1c1ccc([N+](=O)[O-])cc1c(=O)n2CCCBr", "GI50": "42.6 µM"}
{"molecule": "Cc1ccc(-c2csc(NC(=O)CN3CCN(c4cc5c(cc4F)c(=O)c(C(=O)O)cn5C4CC4)CC3)n2)cc1", "GI50": "2.04 µM"}
{"molecule": "CCn1c(-c2nonc2N)nc2c(C#CC(C)(C)O)nc(OCCNC)cc21", "GI50": "5.34 µM"}
{"molecule": "COc1cc(-c2cn(-c3ccc(Cl)c(Cl)c3)c(=O)n2C(C)=O)cc(OC)c1OC", "GI50": "14.9 µM"}
{"molecule": "CCn1c2ccc(O)cc2c2c(C)c3c[n+](C)ccc3c(C)c21", "GI50": "3.9 µM"}
